tested on: fibrin-induced microglia activation; assay: Image-based assay of fibrin-induced microglia activation (HTS and dose response); assay type: cell-based, rat; settings: Rattus norvegicus, Microglia, read-out: Fibrin % inhibition
Where a name gives a salt, the structure may show the parent alone.
Threshold rule: inhibition at 10 µM greater than or equal to -70% is YES; below that, NO.

Is the recorded value of inhibition at 10 µM equal to or greater than -70% for this compound? CCCCC(=O)N(Cc1ccc(-c2ccccc2-c2nnn[nH]2)cc1)[C@H](C(=O)O)C(C)C
YES

Moving on to COc1ccc(OC)c(C(O)CNC(=O)CN)c1 (centres unmarked) [Midodrine hydrochloride, reference compound]
YES

Moving on to CCN(CC)CC#CCOC(=O)C(O)(c1ccccc1)C1CCCCC1 (centres unmarked)
YES

Moving on to NC(N)=Nc1nc(CSCCC(N)=NS(N)(=O)=O)cs1
NO

* * *

tested on: LPS-induced microglia activation; test: Image-based assay of LPS-induced microglia activation (HTS and dose response); format: cell-based, rat; settings: Rattus norvegicus, Microglia, primary microglia HTS, LPS stimulation, compounds at 10 μM; read-out: LPS % inhibition
Counter-ions that a name gives are not always drawn.
Quantity Name: inhibition at 10 µM

Value lookup for inhibition at 10 µM; key = CN(C)CC[C@@H](c1ccc(Cl)cc1)c1ccccn1
11%

Moving on to C[C@H]1c2cccc(O)c2C(=O)C2=C(O)[C@]3(O)C(=O)C(C(N)=O)=C(O)[C@@H](N(C)C)[C@@H]3[C@@H](O)[C@@H]21
18%

Moving on to O=S(=O)(c1cccc2cnccc12)N1CCCNCC1 [Fasudil Hydrochloride]
-21%

Moving on to CC(C)(CO)[C@@H](O)C(=O)NCCCO
11%

Moving on to CN1CCN(c2cc3c(cc2F)c(=O)c(C(=O)O)cn3-c2ccc(F)cc2)CC1 [Difloxacin Hydrochloride]
33%

Moving on to CC(=O)N(O)CCCCCNC(=O)CCC(=O)N(O)CCCCCNC(=O)CCC(=O)N(O)CCCCCN
32%

Moving on to CC[N+](CC)(CC(=O)Nc1c(C)cccc1C)Cc1ccccc1 [Denatonium Benzoate]
12%

Moving on to NC(=O)c1ccc([N+](=O)[O-])cc1Cl [Aklomide]
-2%

Moving on to CCCCCCOC(=O)NC(=N)c1ccc(NCc2nc3cc(C(=O)N(CCC(=O)OCC)c4ccccn4)ccc3n2C)cc1 [Dabigatran etexilate]
9%

Moving on to O=C(O)CCNC(=O)c1ccc(/N=N/c2ccc(O)c(C(=O)O)c2)cc1 [Balsalazide]
11%

Moving on to CCCCc1ncc(/C=C(\Cc2cccs2)C(=O)O)n1Cc1ccc(C(=O)O)cc1
-8%

Moving on to CCN1C[C@]2(COC)[C@H](O)C[C@H](OC)[C@@]34[C@@H]5C[C@@]6(O)[C@H](OC(=O)c7ccccc7)[C@@H]5[C@@](OC(C)=O)([C@@H]([C@H](OC)[C@H]23)[C@@H]14)[C@@H](O)[C@@H]6OC
12%

Moving on to O=C1CC[C@@]2(O)[C@H]3Cc4ccc(O)c5c4[C@@]2(CCN3CC2CC2)[C@H]1O5 [Naltrexone Hydrochloride]
79%

Moving on to O=C(O)COC(=O)Cc1ccccc1Nc1c(Cl)cccc1Cl
8%

Moving on to CC[C@H]1OC(=O)[C@H](C)[C@@H](O[C@H]2C[C@@](C)(OC)[C@@H](O)[C@H](C)O2)[C@H](C)[C@@H](O[C@@H]2O[C@H](C)C[C@H](N(C)C)[C@H]2O)[C@](C)(O)C[C@@H](C)C(=O)[C@H](C)[C@@H](O)[C@]1(C)O
20%
